Attribution: patent US20240270741A1

# IC50 per entry
- experimental_target: FGFR2 (Homo sapiens)
- Sequence (P21802 399-821 limits assumed): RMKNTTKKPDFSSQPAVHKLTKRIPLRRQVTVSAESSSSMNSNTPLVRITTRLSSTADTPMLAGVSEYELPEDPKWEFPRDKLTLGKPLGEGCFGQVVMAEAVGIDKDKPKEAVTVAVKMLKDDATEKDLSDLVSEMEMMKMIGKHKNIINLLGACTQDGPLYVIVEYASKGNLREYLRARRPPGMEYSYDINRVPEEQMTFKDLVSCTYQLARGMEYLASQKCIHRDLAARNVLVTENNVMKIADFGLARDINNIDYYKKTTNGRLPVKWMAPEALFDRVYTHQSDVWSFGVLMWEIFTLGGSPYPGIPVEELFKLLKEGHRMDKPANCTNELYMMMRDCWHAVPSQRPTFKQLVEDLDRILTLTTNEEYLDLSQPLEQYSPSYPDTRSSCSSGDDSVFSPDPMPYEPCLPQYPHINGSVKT
- method_notes: FGFR wild type enzyme assay (HTRF KinEASE-TK), FGFR2
- condition_context: Enz FGFR2 (nM), FGFR2 wild type enzyme assay

[
  {
    "compound": "Cc1c(-c2cc(Sc3ccc(F)cc3C#N)c3c(C#N)cnn3c2)cnn1[C@H]1CCCNC1",
    "experimental_target": "FGFR2 (Homo sapiens)",
    "IC50 / nM": 1
  },
  {
    "compound": "CNC(=O)c1nn([C@H]2CCCNC2)cc1-c1cc(Sc2ncccc2F)c2c(C#N)cnn2c1",
    "experimental_target": "FGFR2 (Homo sapiens)",
    "IC50 / nM": 48
  },
  {
    "compound": "Cc1c(-c2cc(Sc3ccc(F)cn3)c3c(C#N)cnn3c2)cnn1[C@H]1CCCN(C)C1",
    "experimental_target": "FGFR2 (Homo sapiens)",
    "IC50 / nM": 9
  },
  {
    "compound": "Cc1c(-c2cc(Sc3ccc(F)cc3C#N)c3c(C#N)cnn3c2)cnn1[C@@H]1CCCC[C@H]1O",
    "experimental_target": "FGFR2 (Homo sapiens)",
    "IC50 / nM": 32
  },
  {
    "compound": "CC(=O)N1CCC[C@H](n2ncc(-c3cc(Sc4nc(C)c(F)cc4F)c4c(C#N)cnn4c3)c2C)C1",
    "experimental_target": "FGFR2 (Homo sapiens)",
    "IC50 / nM": 2
  },
  {
    "compound": "Cc1c(-c2cc(Sc3ccc(F)cc3C#N)c3c(C#N)cnn3c2)cnn1[C@@H]1C[C@H]2CC[C@@H](C1)N2C(=O)CO",
    "experimental_target": "FGFR2 (Homo sapiens)",
    "IC50 / nM": 1
  },
  {
    "compound": "Cc1c(-c2cc(Sc3ccc(F)cc3C#N)c3c(C#N)cnn3c2)cnn1[C@H]1CC[C@H](OC(=O)[C@H](C)N)CC1",
    "experimental_target": "FGFR2 (Homo sapiens)",
    "IC50 / nM": 1
  },
  {
    "compound": "Cc1c(-c2cc(Sc3ccc(F)cc3C#N)c3c(C#N)cnn3c2)cnn1[C@@H]1CNC(C)(C)C1",
    "experimental_target": "FGFR2 (Homo sapiens)",
    "IC50 / nM": 1
  },
  {
    "compound": "N#Cc1cnn2cc(-c3ccc(N4CCNC(=O)C4)nc3)cc(Sc3ncccc3F)c12",
    "experimental_target": "FGFR2 (Homo sapiens)",
    "IC50 / nM": 2
  },
  {
    "compound": "CN(CCO)C(=O)Cn1cc(-c2cc(Sc3ccccc3C#N)c3c(C#N)cnn3c2)cn1",
    "experimental_target": "FGFR2 (Homo sapiens)",
    "IC50 / nM": 1
  },
  {
    "compound": "N#Cc1cc(F)ccc1Sc1cc(-c2cn([C@H]3CCCNC3)nn2)cn2ncc(C#N)c12",
    "experimental_target": "FGFR2 (Homo sapiens)",
    "IC50 / nM": 6
  },
  {
    "compound": "Cc1c(-c2cc(Sc3ncccc3F)c3c(C#N)cnn3c2)cnn1C1CCN(C#N)CC1",
    "experimental_target": "FGFR2 (Homo sapiens)",
    "IC50 / nM": 2
  },
  {
    "compound": "Cc1c(-c2cc(Sc3ccc(F)cc3C#N)c3c(C#N)cnn3c2)cnn1C1CCN(S(C)(=O)=O)CC1",
    "experimental_target": "FGFR2 (Homo sapiens)",
    "IC50 / nM": 2
  },
  {
    "compound": "COC(=O)N1[C@@H]2CC[C@H]1C[C@H](n1ncc(-c3cc(Sc4ccc(F)cc4C#N)c4c(C#N)cnn4c3)c1C)C2",
    "experimental_target": "FGFR2 (Homo sapiens)",
    "IC50 / nM": 2
  },
  {
    "compound": "N#Cc1ccccc1Sc1cc(-c2cnn(-c3cn[nH]c3)c2)cn2ncc(C#N)c12",
    "experimental_target": "FGFR2 (Homo sapiens)",
    "IC50 / nM": 4
  },
  {
    "compound": "Cc1c(-c2cc(Sc3ccc(F)cc3C#N)c3c(C#N)cnn3c2)cnn1[C@@H]1CCC[C@@H](O)C1",
    "experimental_target": "FGFR2 (Homo sapiens)",
    "IC50 / nM": 1
  },
  {
    "compound": "Cc1c(-c2cc(Sc3ccc(F)cc3C#N)c3c(C#N)cnn3c2)cnn1CC[C@@H](O)CO",
    "experimental_target": "FGFR2 (Homo sapiens)",
    "IC50 / nM": 3
  },
  {
    "compound": "COC(=O)N1CCC(n2ncc(-c3cc(Sc4ccc(F)cc4C#N)c4c(C#N)cnn4c3)c2C)CC1",
    "experimental_target": "FGFR2 (Homo sapiens)",
    "IC50 / nM": 2
  },
  {
    "compound": "Cn1cc(-c2cc(Sc3ccccc3C#N)c3c(C#N)cnn3c2)cn1",
    "experimental_target": "FGFR2 (Homo sapiens)",
    "IC50 / nM": 1
  },
  {
    "compound": "CS(=O)(=O)N1CCC[C@H](n2cc(-c3cc(Sc4ccccc4C#N)c4c(C#N)cnn4c3)cn2)C1",
    "experimental_target": "FGFR2 (Homo sapiens)",
    "IC50 / nM": 1
  },
  {
    "compound": "CN(c1ccc(-c2cc(Sc3ccccc3C#N)c3c(C#N)cnn3c2)cn1)C1CCCNC1 (stereo not drawn)",
    "experimental_target": "FGFR2 (Homo sapiens)",
    "IC50 / nM": 0.2
  },
  {
    "compound": "N#Cc1cc(F)ccc1Sc1cc(-c2ccc(N3C[C@@H](O)[C@@H](O)C3)nc2)cn2ncc(C#N)c12",
    "experimental_target": "FGFR2 (Homo sapiens)",
    "IC50 / nM": 1
  },
  {
    "compound": "Cc1c(-c2cc(Sc3ccc(F)cc3C#N)c3c(C#N)cnn3c2)cnn1C1CCN([C@@H](C)CO)CC1",
    "experimental_target": "FGFR2 (Homo sapiens)",
    "IC50 / nM": 1
  },
  {
    "compound": "N#Cc1cnn2cc(-c3cnn([C@H]4CCN(C5CC(O)C5)C4)c3)cc(Sc3ncccc3F)c12 (stereo partly drawn)",
    "experimental_target": "FGFR2 (Homo sapiens)",
    "IC50 / nM": 1
  },
  {
    "compound": "CC(C)(CO)n1cc(-c2cc(Sc3ccccc3C#N)c3c(C#N)cnn3c2)cn1",
    "experimental_target": "FGFR2 (Homo sapiens)",
    "IC50 / nM": 2
  },
  {
    "compound": "N#Cc1cc(F)ccc1Sc1cc(-c2cnn(-c3cn[nH]c3)c2)cn2ncc(C#N)c12",
    "experimental_target": "FGFR2 (Homo sapiens)",
    "IC50 / nM": 6
  },
  {
    "compound": "CO[C@H]1CC[C@H](n2ncc(-c3cc(Sc4ccc(F)cc4C#N)c4c(C#N)cnn4c3)c2C)CC1",
    "experimental_target": "FGFR2 (Homo sapiens)",
    "IC50 / nM": 1.5
  },
  {
    "compound": "Cn1ncc(-c2cc(Sc3ncccc3F)c3c(C#N)cnn3c2)c1N",
    "experimental_target": "FGFR2 (Homo sapiens)",
    "IC50 / nM": 3
  },
  {
    "compound": "Cc1c(-c2cc(Sc3ncc(F)cc3F)c3c(C#N)cnn3c2)cnn1[C@@H]1CCN(C)C(C)(C)C1",
    "experimental_target": "FGFR2 (Homo sapiens)",
    "IC50 / nM": 42
  },
  {
    "compound": "C[C@H](O)C(=O)N1CCC(n2cc(-c3cc(Sc4ccc(F)cc4C#N)c4c(C#N)cnn4c3)cn2)CC1",
    "experimental_target": "FGFR2 (Homo sapiens)",
    "IC50 / nM": 1
  }
]
